# assayedTarget: NADPH oxidase 5 (Homo sapiens)
# assay: NOX5-dependent H2O2 signal modulators, primary screen, NOX inhibitor project, cell-based, HEK293-NOX5, Amplex Red fluorescence (AID 1161)
# conditionDescription: HEK293-NOX5, ionomycin, 45 min, higher = more signal
Below, each entry is listed alongside its reported z-score.
attributeMeasured: z-score

In [3]: df
Out[3]:
                                   compound                   assayedtarget  measurement
0  CO[C@@H]1C=CCC(=O)N2CCC[C@H]2C(=O)OC[C@@H](C)C(=O)OC[C@H]1C  NADPH oxidase 5 (Homo sapiens)        0.147
1  O=C1[C@H]2[C@H]3[C@H](O)[C@H](O)CC(=NOC[C@@H](O)COCc4ccco4)[C@H]3CC[C@H]2C(=O)N1C[C@@H]1CCCO1  NADPH oxidase 5 (Homo sapiens)      -0.0426
2  C[C@@H](c1ccccc1)N1C(=O)[C@H]2[C@H]3[C@H](O)[C@H](O)CC(=NO[C@@H]4O[C@H](CO)[C@@H](O)[C@H](O)[C@H]4O)[C@@H]3CC[C@H]2C1=O  NADPH oxidase 5 (Homo sapiens)       0.0309
3  COc1ccc(O[C@H]2C=C[C@@H](c3ccccc3)O[C@@H]2CON=CC[C@@H]2C=C[C@H](OC(C)=O)[C@@H](COC(C)=O)O2)cc1  NADPH oxidase 5 (Homo sapiens)        -1.01
4  CC(C)CON=C1C[C@@H](O)[C@@H](O)[C@@H]2[C@@H]3C(=O)N(C[C@@H]4CCCO4)C(=O)[C@@H]3CC[C@@H]12  NADPH oxidase 5 (Homo sapiens)      -0.0365
5  C=Cc1ccc([C@H]2N[C@H](C(=O)O)CC[C@@H]2C)cc1  NADPH oxidase 5 (Homo sapiens)       0.0584
6  CCOC(=O)[C@H](CC(C)C)NC(=O)CCC1CC(OC(=O)NCCc2ccc(F)cc2)CC2(CCCC(COC(=O)NCCOc3ccccc3)O2)O1 (some centres not stated)  NADPH oxidase 5 (Homo sapiens)         1.33

====

# assay: fission yeast growth modulation, primary screen, strain 972, OD600, 24 h, no modulator (AID 1090);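 also: basal condition with compound alone and no growth modifier present; test concentration not given here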
# conditionDescription: S. pombe 972 growth, higher = more signal, called active from +8 up or from −8 down
Calls of active or inactive are those of the source.
attributeMeasured: z-score

                                   compound        measurement
0  CC(C)=CCCC(C)=CCON=C1C[C@@H](O)[C@@H](O)[C@@H]2[C@@H]3C(=O)N(C[C@@H]4CCCO4)C(=O)[C@@H]3CC[C@H]12   0.948 (inactive)
1  O=C1C[C@@H](O)[C@@H](O)[C@@H]2[C@@H]3C(=O)N(C[C@@H]4CCCO4)C(=O)[C@@H]3CC[C@H]12  -0.563 (inactive)
2  CCOC(=O)[C@H](Cc1ccccc1)NC(=O)CCC1CC(OC(=O)NCCc2ccc(F)cc2)CC2(CCCC(COC(=O)NCCc3ccccc3OC)O2)O1 (some centres undefined)   0.932 (inactive)
3  CC(C)CON=C1C[C@@H](O)[C@@H](O)[C@@H]2[C@@H]3C(=O)N(Cc4ccc5c(c4)OCO5)C(=O)[C@@H]3CC[C@H]12   0.754 (inactive)

====

# assay: HepG2 cell viability effects, profiling panel, calcein-AM fluorescence, 48 h, basal (AID 1164); also: test concentration not given here
# conditionDescription: higher = more signal
attributeMeasured: z-score

molecule	attributeMeasured	measurement
CCOC(=O)[C@H](CC(C)C)NC(=O)CCC1CC(OC(=O)NCc2ccc3c(c2)OCO3)CC2(CCCC(COC(=O)NCc3cccc(C(F)(F)F)c3)O2)O1 (stereo partly specified)	z-score	-0.503
COC(=O)CC=C[C@@H](C)[C@@H](C=NO[C@@H](C)c1cn([C@H](CO)Cc2ccccc2)nn1)OC	z-score	0.656
CCOC(=O)[C@H](CC(C)C)NC(=O)CCC1CC(OC(=O)NCc2cccc3ccccc23)CC2(CCCC(COC(=O)NCCCN3CCCC3=O)O2)O1 (stereo partly specified)	z-score	-0.839
CO[C@@H]1COC(=O)[C@H](CCSC)NC(=O)CC=C[C@@H](C)COC(=O)CCC[C@H]1C	z-score	-0.764
CCN1C(=O)[C@@H]2[C@H]3C(=CC[C@@H]2C1=O)C1(OCCCO1)[C@H]1O[C@H]1[C@H]3O	z-score	-4.61
O=C1[C@H]2[C@H]3[C@H](O)[C@H](O)CC(=NOC[C@@H](O)COCc4ccco4)[C@H]3CC[C@H]2C(=O)N1Cc1ccccc1	z-score	-1.46
CC(=O)OC[C@H]1O[C@H](C#Cc2ccccc2)C=C[C@@H]1OC(C)=O	z-score	-0.136
CCCNC(=O)OC[C@H]1O[C@H](CCON=C(C)C)C=C[C@@H]1Oc1ccc(OC)cc1	z-score	-0.0737
CO[C@H](C1CCCCC1)[C@H](C)C=CCC(=O)OCCCc1ccccc1	z-score	-0.0782
CC1O[C@H]2C3=C(C(=O)[C@@H]4O[C@@H]4[C@H]3O)[C@@H]1C1[C@@H](C)OC=C3[C@H](O)C4O[C@@H]4C(=NOCc4ccccc4)[C@]312 (stereo partly specified)	z-score	-1.65
C=CC[C@@H]1C=C[C@H](ON=C(C)CCN2CCc3nc(-c4ccccc4)c(-c4ccccc4)cc3C2)[C@@H](CO)O1	z-score	2.31
COC(=O)[C@H](C)NC(=O)CCC1CC(OC(=O)NCc2cccc3ccccc23)CC2(CCCC(COC(=O)NCC(c3ccccc3)c3ccccc3)O2)O1 (stereo partly specified)	z-score	-0.618
O=C(NN=C1C[C@@H](O)[C@@H](O)[C@@H]2[C@@H]3C(=O)N(Cc4ccccc4)C(=O)[C@@H]3CC[C@@H]12)OCc1ccccc1	z-score	-0.258
CON=C[C@@H](C)[C@H](OCc1ccccc1)C(C)C	z-score	-0.0832
CC(=O)OC[C@H]1O[C@H](CC=NO[C@H](C)c2cn([C@H](CO)Cc3ccccc3)nn2)C=C[C@@H]1OC(C)=O	z-score	-0.0224
Cn1c(=O)n2n(c1=O)[C@H]1[C@H](O)[C@@H]3O[C@@H]3C(=O)[C@H]1CC2	z-score	0.902

====

# assay: basal RPMI8226 viability, no added stimulus, profiling panel, cell-based, calcein-AM fluorescence, 48 h, PK04 Diversity Set (AID 1166);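 also: cells grown under basal conditions without added stimulus; test concentration not given here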
# conditionDescription: RPMI8226 myeloma viability, higher = more signal
attributeMeasured: z-score

>>> print(df.to_string())
                                   compound  measurement
0  Cc1ccc(S(=O)(=O)N[C@@H]2COC(=O)[C@@H](C)COC(=O)CC=C[C@H]2C)cc1        0.587
1  COC(=O)CC=C[C@@H](C)[C@@H](C=NO[C@@H](C)c1cn([C@H](CO)Cc2ccccc2)nn1)OC       -0.609
2  C[C@@H]1CC[C@H]2C(=O)O[C@@H](Cc3ccccc3)CN2[C@H]1c1ccc(Br)cc1       -0.323
3  CCOC(=O)[C@H](CC(C)C)NC(=O)CCC1CC(OC(=O)NCCc2ccc(F)cc2)CC2(CCCC(COC(=O)NCCOc3ccccc3)O2)O1 (some centres undefined)        -3.56

====

# assay: binders of probe aHhip on microarray, primary screen, stem cell growth factor project, biochemical, small-molecule microarray, fluorescence 635/667 (AID 1087);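 also: score merges spot fluorescence at 667nm with spot signal to noise ratio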
# conditionDescription: higher = more signal
Use -0.04 as the dividing line for composite z-score, with the line itself on the 1 side and lower values as 0.

compound	answerLabel
COC(=O)[C@H](C)NC(=O)CCC1CC(OC(=O)NCCc2ccc(F)cc2)CC2(CCCC(COC(=O)NCc3cccc(C(F)(F)F)c3)O2)O1 (stereo partly specified)	0
CC(CCN1CCc2nc(-c3ccccc3)c(-c3ccccc3)cc2C1)=NOC[C@@H](O)[C@H]1O[C@@H]2OC(C)(C)O[C@@H]2[C@H]1O	1
CC(CCN1CCCCc2nc(C)c(C)cc21)=NO[C@H](C)c1cn([C@H](CO)Cc2ccccc2)nn1	1
CCOC(=O)[C@H](CC(C)C)NC(=O)CCC1CC(OC(=O)NCCc2ccc(F)cc2)CC2(CCCC(COC(=O)NCC(c3ccccc3)c3ccccc3)O2)O1 (stereo partly specified)	0
CCC1=NOC(CCC2CC(OC(=O)NCc3cccc4c3OCO4)CC3(CCCC(COC(=O)NCCc4ccccc4OC)O3)O2)C1 (stereo unspecified)	0
COc1ccc(O[C@H]2C=C[C@@H](c3ccccc3)O[C@@H]2CON=C2[C@H]3CCn4c(=O)n(-c5ccccc5)c(=O)n4[C@H]3[C@H](O)[C@@H]3O[C@H]23)cc1	1
CCN1C(=O)[C@H]2[C@H]3[C@H](O)[C@H](O)CC(=O)[C@H]3CC[C@H]2C1=O	1
COCOc1ccc(Br)cc1C(=O)[C@@H]1O[C@H]1c1cccc(OC)c1	0
COC(=O)C=CCCc1coc(C=CCNC(=O)OC)n1	1
CCOC(=O)C1=NO[C@]2(C=C(Br)C3(OCCCO3)[C@H]3O[C@H]32)C1	0
CO[C@@H]1C=CCC(=O)N2CCC[C@H]2C(=O)OC[C@@H](C)C(=O)OC[C@H]1C	1
O=C1[C@H]2[C@H]3[C@H](O)[C@H](O)CC(=NOCc4ccccc4)[C@H]3CC[C@H]2C(=O)N1Cc1ccc2c(c1)OCO2	1
COC(=O)CC=C[C@@H](C)[C@@H]1C=C[C@H](O)[C@@H](CO)O1	0
COc1ccc(O[C@H]2C=C[C@@H](c3ccccc3)O[C@@H]2COC(=O)CCC(C)=NO[C@@H]2O[C@H](COC(C)=O)[C@@H](OC(C)=O)[C@H](OC(C)=O)[C@H]2OC(C)=O)cc1	0
C=C(C)C(=O)OCC1CN2[C@@H](CC[C@@H](C)[C@@H]2c2ccc(Br)cc2)C(=O)O1 (stereo partly specified)	0

Numbers sourced from PubChem BioAssay.
